Assignment: determine reported growth for the given compounds.
System: M14 melanoma
Protocol summary: NCI-60 one-dose screen, 48 h (100 = growth as untreated, 0 = no growth, -100 = all killed)
Study conditions: 10 µM unless noted
Compounds without any hit were thinned out: in the full panel of roughly 83,000, 20% have a hit.
Give bare numbers, in %.

INSERT INTO assay_data (compound, readout_type, measurement_units, reported) VALUES
  ('O=CN1N=C(c2cccc(Nc3ccncc3)c2)CC1c1ccc2c(c1)OCO2 (centres undefined)', 'growth', '%', 96.4);

Hey, can you go through the list below and give me growth for every item?
1. CCOC(=O)c1c(C)nc2c(c1N)C(=O)C(=O)N2CCc1ccc(OC)c(OC)c1
2. COC(=O)[C@H](C)NC(=O)[C@@H]1CCCN1C(=O)CNC(=O)[C@H](C)N
3. COc1cc(CNC(=O)CCCC/C=C/C(C)C)ccc1OCc1cn(-c2ccc(C(F)(F)F)cc2)nn1
4. Nc1ccc(N)c2c1C(=O)c1cccc([N+](=O)[O-])c1C2=O
5. COc1ccc(-c2cn(Cc3ccc4c(Br)cc(Br)c(O)c4n3)nn2)cc1
6. COC(=O)c1cc(-c2ccc(OC)c(OC)c2)[nH]c1N/N=C/c1c(Cl)cccc1Cl
7. Cc1cc(C(=O)Nc2cc(Nc3ncccc3-c3ncnc4nc[nH]c34)ccc2F)cc(C(C)(C)C#N)c1

-- reply
[70.6, 103, 97.5, 30.8, 83.3, 0.331, 5.3]

-- ask Supply measured growth of Cc1ccc(C(=O)Nc2ccc(CN3CCN(C)CC3)c(C(F)(F)F)c2)cc1C#Cc1cnc(N)c2ccccc12 in your reply.
-- reply -76.7

---

Tested on: DU-145 prostate
Protocol summary: NCI-60 one-dose screen, 48 h (100 = growth as untreated, 0 = no growth, -100 = all killed)
Study conditions: 10 µM unless noted
Compounds without any hit were thinned out: in the full panel of roughly 83,000, 20% have a hit.
Readout type: growth (%)
Numbers only, in %.

Hey, can you go through the list below and give me growth for every item?
1. COc1cc(C)cc(-c2c(-c3cc(N4CC(O)C4)nc(-c4cccnc4)n3)cnn2C)c1
2. O=C(/C=C/c1ccc([N+](=O)[O-])cc1)c1cccc(Nc2nc(Nc3ccccc3)nc(Nc3ccccc3)n2)c1
3. COc1cc2nc3cc([N+](=O)[O-])ccc3c(NCCCNCCO)c2cc1OC
4. CCOC(=O)CCC(=O)P(=O)(O)O
5. CCN(CC)CCOc1ccc(/C(=C(\C)Cc2ccc(OC)cc2)c2ccc(O)cc2)cc1
6. CCOC(=O)c1c(NC(=S)Nc2ccc([N+](=O)[O-])cc2)sc2c1CCCCC2
7. CCCCCCC/C=N/NC(=O)c1ccc(-n2cc(-c3ccccc3)nn2)cc1
8. N#C/C(Sc1nc2sc3c(c2c(=O)n1Cc1ccccc1)CCCC3)=C1/SC=C(c2ccc(Cl)cc2)N1c1ccccc1

-- reply
89.5
77.3
-31.2
114
53.4
89.8
96.1
119

-- ask Supply measured growth of O=C1N/C(=N/N=C(c2ccccc2)c2ccccc2)S/C1=C\c1ccc(Br)cc1 in your reply.
-- reply 107

---

System: U251 CNS
Protocol summary: NCI-60 one-dose screen, 48 h (100 = growth as untreated, 0 = no growth, -100 = all killed)
Study conditions: 10 µM unless noted
This is part of a sample that, as a whole, favours compounds with a hit. Of some 83,000 tested, about 20% had one in any assay. Activity calls are given as the source filed them. The calls were made as follows: active = growth percent below 10; inactive = the rest.
Readout type: growth

Use the examples below as a reference point.
INSERT INTO results (compound, measured_on, reported) VALUES
  ('O=C1/C(=C/c2cccc([N+](=O)[O-])c2)COc2ccc(O)c(O)c21', 'U251 CNS', '-89% (active)'),
  ('CN1CCN(Cc2ccc(NC(=O)c3cncc(C#Cc4c(N)ncc5c(F)cccc45)c3)cc2C(F)(F)F)CC1', 'U251 CNS', '-88.4% (active)'),
  ('COc1ccc(C2CC(=O)Oc3c(OC)c4c(c(OC)c32)OCO4)cc1 (centres undefined)', 'U251 CNS', '99.6% (inactive)');

Hey, can you go through the list below and give me growth for every item?
1. CN1CCN(Cc2ccc(NC(=O)c3cc(C#Cc4cnc(N)c5ncccc45)n(C)n3)cc2C(F)(F)F)CC1
2. C=CCn1c(SCC(=O)Nc2ccc(C(=O)/C=C/c3ccc(Cl)cc3)cc2)nnc1-c1ccccc1
3. O=C(Nc1ncc(Cc2ccccc2)s1)c1ccc2c(c1)OCCO2
4. O=C1/C(=C/c2ccc(Br)cc2)COc2ccc(O)cc21
5. COc1cc2c(c(OC)c1OC)CCC(c1cccc(NC(=O)c3cccc(Cl)c3)c1)O2 (centres undefined)
6. O=C(CSc1nnc(-c2cc(-c3ccc(Cl)cc3)nc3ccccc23)n1-c1ccccc1)Nc1ccc(Cl)cc1

-- reply
["38.5% (inactive)", "94.3% (inactive)", "14.2% (inactive)", "57% (inactive)", "91.1% (inactive)", "98.7% (inactive)"]

---

Test system: UACC-62 melanoma
Protocol summary: NCI-60 one-dose screen, 48 h (100 = growth as untreated, 0 = no growth, -100 = all killed)
Study conditions: 10 µM unless noted
About 83,000 compounds went through this panel and 20% of them were active in at least one assay; those are over-represented in the sample as a whole.
Output schema: class label derived from growth. Mapping: class 1: < 50%; class 2: ≥ 50% and < 90%; class 3: ≥ 90%

Below, 4 compounds whose answers are already recorded.
INSERT INTO measurements (compound, category) VALUES
  ('O=C(Nc1ccccc1CNc1nc(Nc2ccc(OCCN3CCCC3)cc2)ncc1Cl)NC1CCCCC1', 'class 3'),
  ('CCN1C(=O)N(CC)C2C1NC(=S)N2/N=C/C=C/c1ccccc1 (stereo not given)', 'class 1'),
  ('CN(C)CC1C(=O)O[C@H]2[C@H]1CC/C(COC(=O)NCc1ccc(Cn3c(=O)sn(CCCI)c3=O)cc1)=C\CC[C@@]1(C)O[C@@H]21 (stereo not given in full)', 'class 1'),
  ('C=CCn1c(SCC(=O)Nc2ccc(C(=O)/C=C/c3ccc(Cl)cc3)cc2)nnc1-c1ccc(Cl)c(Cl)c1', 'class 2');

-- ask Class (by measured growth) for COc1ccc(-c2cc(-c3ccc(Cl)cc3)c(C#N)c(=O)n2CCCCC(=O)NO)cc1
-- reply class 2

-- ask Class (by measured growth) for CCOC(=O)c1c(Nc2nc3ccccc3s2)sc2c1CCC(=O)C2
-- reply class 1

-- ask Class (by measured growth) for COc1cccc(C(=O)Nc2cccc(NC(=O)c3ccccn3)c2)c1
-- reply class 3

-- ask Class (by measured growth) for COc1cc(NC(=O)c2cncnc2Nc2ccc3c(ccn3Cc3cccc(F)c3)c2)cc(OC)c1
-- reply class 2

-- ask Class (by measured growth) for COc1ccc(/C=C2/CCc3cc4ccc(OC)cc4[o+]c32)c(O)c1
-- reply class 1

---

System: UO-31 renal
Protocol summary: NCI-60 one-dose screen, 48 h (100 = growth as untreated, 0 = no growth, -100 = all killed)
Study conditions: 10 µM unless noted
The panel holds about 83,000 compounds, 20% with a hit somewhere; the sample as a whole holds those more often.
Assignment: determine reported growth for the given molecules.
One number for each entry, in %.

INSERT INTO results (molecule, reported) VALUES
  ('CC1=NC(=S)NC(c2ccccc2)/C1=C1/CC(c2ccccc2O)NN1 (stereo not given)', 73.1),
  ('CN1CC(c2ccccc2)C(C(=O)c2ccc(Br)cc2)C12C(=O)Nc1ccccc12 (stereo not given)', 65.9),
  ('O=C(Nc1ncc(Cc2ccc(Cl)cc2)s1)c1ccc2c(c1)OCCO2', 50.2);

Hey, can you go through the list below and give me growth for every item?
1. COc1nc2ccccc2cc1/C=[N+](\[O-])c1ccccc1
2. CCCCCC(C)(O)C(C(=O)O)c1ccccc1 (stereo not given)
3. CCOC(=O)c1cc(C(=O)c2cc(OC)cc(OC)c2)n2ncccc12
4. CCOC(=O)C1=C(c2ccccc2)N=C2N(c3ccccc3)N=C(C(C)=O)N2C1c1ccc(Br)cc1 (stereo not given)

-- reply
1: 43.9; 2: 94.5; 3: 47.8; 4: 72.7

Hey, can you go through the list below and give me growth for every item?
1. CCN(CC)CCN1C(=O)c2c(c(C)c3c(oc4cc(OC)ccc43)c2C)C1=O
2. Nc1n[nH]c2cccc(C#Cc3cccc(C(=O)Nc4ccc(Cl)c(C(F)(F)F)c4)c3)c12
3. Cc1cccc(C)c1NC(=O)Nc1ccccc1

-- reply
1: -43.7; 2: 29.6; 3: 80.7

---

System: KM12 colon
Protocol summary: NCI-60 one-dose screen, 48 h (100 = growth as untreated, 0 = no growth, -100 = all killed)
Study conditions: 10 µM unless noted
About 83,000 compounds went through this panel and 20% of them were active in at least one assay; those are over-represented in the sample as a whole.
Returns: string. Value is yes if measured growth is below 80%, and no if it is greater than or equal to it.

Below, 3 compounds whose answers are already recorded.
INSERT INTO measurements (compound, category) VALUES
  ('Brc1ccc(-c2nn(-c3ccccc3)cc2-c2nn[nH]n2)s1', 'no'),
  ('CCn1c2ccccc2c2cc(C(O)c3cccc4ncccc34)ccc21 (stereo not given)', 'yes'),
  ('CC(=O)O[C@H]1CC[C@@]2(C)C(=CC[C@@H]3[C@@H]2CC[C@]2(C)C(Cl)=C(c4nc5ccc(Cl)cn5c4NC(C)(C)C)C[C@@H]32)C1', 'no');

-- ask Does the reported growth of the following compound sit strictly below 80%? CN1CCN(Cc2ccc(NC(=O)c3cncc(C#Cc4c(N)ncc5c(F)cccc45)c3)cc2C(F)(F)F)CC1
-- reply yes

Cited source for all entries: PubChem BioAssay (NCI)
